# Tgt: DNA gyrase subunit A/DNA gyrase subunit B (Mycobacterium tuberculosis (strain ATCC 25618 / H37Rv), UniProt P9WG45+P9WG47)
# Sequence (P9WG45 whole entry): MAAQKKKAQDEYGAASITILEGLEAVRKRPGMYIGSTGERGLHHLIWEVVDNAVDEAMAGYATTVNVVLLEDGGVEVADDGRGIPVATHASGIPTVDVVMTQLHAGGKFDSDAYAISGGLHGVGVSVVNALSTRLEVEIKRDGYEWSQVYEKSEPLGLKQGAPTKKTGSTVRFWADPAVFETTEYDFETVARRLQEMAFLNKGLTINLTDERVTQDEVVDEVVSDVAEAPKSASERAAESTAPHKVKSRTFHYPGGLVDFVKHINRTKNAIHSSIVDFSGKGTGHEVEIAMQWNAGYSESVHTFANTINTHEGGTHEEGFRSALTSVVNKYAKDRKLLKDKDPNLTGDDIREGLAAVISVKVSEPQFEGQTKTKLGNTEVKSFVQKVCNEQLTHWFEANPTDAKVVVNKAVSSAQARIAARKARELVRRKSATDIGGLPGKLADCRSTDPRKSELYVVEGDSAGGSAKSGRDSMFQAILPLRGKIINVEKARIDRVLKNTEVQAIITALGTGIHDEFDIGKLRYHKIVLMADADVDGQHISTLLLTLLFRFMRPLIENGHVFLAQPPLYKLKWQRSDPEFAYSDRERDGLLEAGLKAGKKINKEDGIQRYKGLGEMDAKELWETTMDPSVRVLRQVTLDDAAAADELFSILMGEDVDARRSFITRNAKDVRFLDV
# Sequence (P9WG47 whole entry): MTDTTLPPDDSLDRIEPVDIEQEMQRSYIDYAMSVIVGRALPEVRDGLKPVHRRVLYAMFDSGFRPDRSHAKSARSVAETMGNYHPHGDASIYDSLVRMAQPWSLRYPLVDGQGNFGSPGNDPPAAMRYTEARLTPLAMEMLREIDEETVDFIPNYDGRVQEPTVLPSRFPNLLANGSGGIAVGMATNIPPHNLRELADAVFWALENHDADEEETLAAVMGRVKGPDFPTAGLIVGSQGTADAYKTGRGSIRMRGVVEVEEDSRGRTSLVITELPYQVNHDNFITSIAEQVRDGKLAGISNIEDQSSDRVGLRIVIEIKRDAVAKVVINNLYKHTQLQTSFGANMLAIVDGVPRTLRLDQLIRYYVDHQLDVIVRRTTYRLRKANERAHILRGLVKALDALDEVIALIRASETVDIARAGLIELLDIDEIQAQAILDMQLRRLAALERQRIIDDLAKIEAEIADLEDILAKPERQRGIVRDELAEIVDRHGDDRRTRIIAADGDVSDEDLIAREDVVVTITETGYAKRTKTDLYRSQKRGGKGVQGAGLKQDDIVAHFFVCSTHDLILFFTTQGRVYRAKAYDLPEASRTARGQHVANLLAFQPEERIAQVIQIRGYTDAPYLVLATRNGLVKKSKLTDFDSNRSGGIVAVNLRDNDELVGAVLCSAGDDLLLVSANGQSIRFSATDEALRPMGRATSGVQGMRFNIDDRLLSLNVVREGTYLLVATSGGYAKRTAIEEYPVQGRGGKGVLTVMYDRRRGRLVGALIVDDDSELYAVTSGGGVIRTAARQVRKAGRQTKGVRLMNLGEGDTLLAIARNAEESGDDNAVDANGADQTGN
# Assay Notes: Inhibition of Mycobacterium tuberculosis DNA gyrase assessed as inhibition of DNA supercoiling activity using relaxed pBR322 as substrate incubated for 30 mins in presence of ATP by ethidium bromide staining based agarose gel electrophoresis
Quantity Measured: pIC50
pIC50 is defined as minus the log10 of a concentration measured in mol/L.

# Smiles Str, pIC50
measured = [
    ("Cc1cc(O)c2c(c1)C(=O)C=CC2=O", 4.52),
    ("Cc1cc(O)c2c(c1)C(=O)C=C(c1c(C)cc(O)c3c1C(=O)C=CC3=O)C2=O", 4.30),
    ("Cc1cc2c(c(O)c1-c1c(C)cc(O)c3c1C(=O)C=CC3=O)C(=O)C=CC2=O", 4.00),
]

Here is another compound to look at.
In plain terms, Cc1cc(O)c2c(c1)C(=O)C(c1c(C)cc3c(c1O)C(=O)C=CC3=O)=CC2=O has a documented pIC50 of 4.82
